Tested on: Pseudomonas aeruginosa PAO1
assay.overview: Inhibition of beta-lactamase activity in Pseudomonas aeruginosa PAO1 36/14-210 (ST-235) assessed as MIC for cefpodoxime antibacterial activity at 4 mg/L by broth microdilution method
Would you mind telling me the reported MIC of each entry?
Please provide the amount together with its unit, number first.

# example entries with known answers
C[C@]1(COC(=O)Cc2ccc(O)c(O)c2)[C@H](C(=O)O)N2C(=O)/C(=C/c3cc(Br)ccn3)[C@H]2S1(=O)=O
16 mg/L
C[C@]1(COC(=O)Cc2ccc(O)c(O)c2)[C@H](C(=O)O)N2C(=O)/C(=C/c3ccc(F)cn3)[C@H]2S1(=O)=O
16 mg/L
C[C@]1(COC(=O)Cc2ccc(O)c(O)c2)[C@H](C(=O)O)N2C(=O)/C(=C/c3ccccn3)[C@H]2S1(=O)=O
16 mg/L

Kindly review the next compound as well.
*Q* For NC(=O)[C@@H]1CC[C@@H]2CN1C(=O)N2OS(=O)(=O)O [AVIBACTAM SODIUM] , write its MIC.
*A* 8 mg/L

====

assay.overview: Inhibition beta lactamase PDC-1 in Pseudomonas aeruginosa PAO1 using nitrocefin as substrate measured by 96 well microtitre plate
Would you mind telling me the reported pIC50 of each entry?
Numbers only, as −log10 of the molar value.

CC1(C)[C@H](C(=O)O)N2C(=O)C[C@H]2S1(=O)=O [SULBACTAM]
5.36
C[C@]1(Cn2ccnn2)[C@H](C(=O)O)N2C(=O)C[C@H]2S1(=O)=O [TAZOBACTAM]
6.07
NC(=O)[C@@H]1CC[C@@H]2CN1C(=O)N2OS(=O)(=O)O [AVIBACTAM SODIUM]
7.29
C[C@]1(COC(=O)Cc2ccc(O)c(O)c2)[C@H](C(=O)O)N2C(=O)/C(=C/c3ccccn3)[C@H]2S1(=O)=O
8.21
C[C@]1(COC(=O)Cc2ccc(O)c(O)c2)[C@H](C(=O)O)N2C(=O)/C(=C/c3cc(Br)ccn3)[C@H]2S1(=O)=O
9.05

Kindly review the next compound as well.
*Q* For `C[C@]1(COC(=O)Cc2ccc(O)c(O)c2)[C@H](C(=O)O)N2C(=O)/C(=C/c3ccc(F)cn3)[C@H]2S1(=O)=O` , write its pIC50.
*A* 8.20

====

Tested on: Pseudomonas aeruginosa PAO1
assay.overview: Inhibition of beta-lactamase activity in Pseudomonas aeruginosa PAO1 deltaampD assessed as MIC for cefpodoxime antibacterial activity at 16 mg/L by broth microdilution method
quantity: MIC (µg/mL)
Numbers only, in µg/mL.

# example entries with known answers
C[C@]1(COC(=O)Cc2ccc(O)c(O)c2)[C@H](C(=O)O)N2C(=O)/C(=C/c3ccc(F)cn3)[C@H]2S1(=O)=O
1
NC(=O)[C@@H]1CC[C@@H]2CN1C(=O)N2OS(=O)(=O)O [AVIBACTAM SODIUM]
0.5
C[C@]1(COC(=O)Cc2ccc(O)c(O)c2)[C@H](C(=O)O)N2C(=O)/C(=C/c3cc(Br)ccn3)[C@H]2S1(=O)=O
1

Kindly review the next compound as well.
*Q* For `C[C@]1(COC(=O)Cc2ccc(O)c(O)c2)[C@H](C(=O)O)N2C(=O)/C(=C/c3ccccn3)[C@H]2S1(=O)=O` , write its MIC.
*A* 1

====

Test system: Pseudomonas aeruginosa PAO1
assay.overview: Inhibition of beta-lactamase activity in Pseudomonas aeruginosa PAO1 deltadacBdeltaampD assessed as MIC for cefpodoxime antibacterial activity at 4 mg/L by broth microdilution method
quantity: MIC (mg/L)
Answers are plain numbers, in mg/L.

# example entries with known answers
C[C@]1(COC(=O)Cc2ccc(O)c(O)c2)[C@H](C(=O)O)N2C(=O)/C(=C/c3cc(Br)ccn3)[C@H]2S1(=O)=O
4
C[C@]1(COC(=O)Cc2ccc(O)c(O)c2)[C@H](C(=O)O)N2C(=O)/C(=C/c3ccc(F)cn3)[C@H]2S1(=O)=O
8
NC(=O)[C@@H]1CC[C@@H]2CN1C(=O)N2OS(=O)(=O)O [AVIBACTAM SODIUM]
4

Kindly review the next compound as well.
*Q* For `C[C@]1(COC(=O)Cc2ccc(O)c(O)c2)[C@H](C(=O)O)N2C(=O)/C(=C/c3ccccn3)[C@H]2S1(=O)=O` , write its MIC.
*A* 8

====

Would you mind telling me the reported MIC of each entry?
Tested on: Pseudomonas aeruginosa PAO1
assay.overview: Inhibition of beta-lactamase activity in Pseudomonas aeruginosa PAO1 deltadacBdeltadacC assessed as MIC for cefpodoxime antibacterial activity at 4 mg/L by broth microdilution method
Give bare numbers, in µg/mL.

# example entries with known answers
C[C@]1(COC(=O)Cc2ccc(O)c(O)c2)[C@H](C(=O)O)N2C(=O)/C(=C/c3ccccn3)[C@H]2S1(=O)=O
1
C[C@]1(COC(=O)Cc2ccc(O)c(O)c2)[C@H](C(=O)O)N2C(=O)/C(=C/c3ccc(F)cn3)[C@H]2S1(=O)=O
2
C[C@]1(COC(=O)Cc2ccc(O)c(O)c2)[C@H](C(=O)O)N2C(=O)/C(=C/c3cc(Br)ccn3)[C@H]2S1(=O)=O
1

Kindly review the next compound as well.
*Q* For NC(=O)[C@@H]1CC[C@@H]2CN1C(=O)N2OS(=O)(=O)O [AVIBACTAM SODIUM] , write its MIC.
*A* 1

====

Would you mind telling me the reported MIC of each entry?
Tested on: Pseudomonas aeruginosa PAO1
assay.overview: Inhibition of beta-lactamase activity in Pseudomonas aeruginosa PAO1 17/14-017 (ST-235) assessed as MIC for cefpodoxime antibacterial activity at 4 mg/L by broth microdilution method
Answers are plain numbers, in µg/mL.

# example entries with known answers
C[C@]1(COC(=O)Cc2ccc(O)c(O)c2)[C@H](C(=O)O)N2C(=O)/C(=C/c3ccc(F)cn3)[C@H]2S1(=O)=O
4
NC(=O)[C@@H]1CC[C@@H]2CN1C(=O)N2OS(=O)(=O)O [AVIBACTAM SODIUM]
4
C[C@]1(COC(=O)Cc2ccc(O)c(O)c2)[C@H](C(=O)O)N2C(=O)/C(=C/c3ccccn3)[C@H]2S1(=O)=O
2

Kindly review the next compound as well.
*Q* For `C[C@]1(COC(=O)Cc2ccc(O)c(O)c2)[C@H](C(=O)O)N2C(=O)/C(=C/c3cc(Br)ccn3)[C@H]2S1(=O)=O` , write its MIC.
*A* 2

====

Tested on: Pseudomonas aeruginosa PAO1
assay.overview: Inhibition of beta-lactamase activity in Pseudomonas aeruginosa PAO1 deltaC+pUCP-(PDC-5) assessed as MIC for cefpodoxime antibacterial activity at 16 mg/L by broth microdilution method
Would you mind telling me the reported MIC of each entry?
One number for each entry, in µg/mL.

# example entries with known answers
C[C@]1(COC(=O)Cc2ccc(O)c(O)c2)[C@H](C(=O)O)N2C(=O)/C(=C/c3cc(Br)ccn3)[C@H]2S1(=O)=O
1
NC(=O)[C@@H]1CC[C@@H]2CN1C(=O)N2OS(=O)(=O)O [AVIBACTAM SODIUM]
1
C[C@]1(COC(=O)Cc2ccc(O)c(O)c2)[C@H](C(=O)O)N2C(=O)/C(=C/c3ccccn3)[C@H]2S1(=O)=O
2

Kindly review the next molecule as well.
*Q* For `C[C@]1(COC(=O)Cc2ccc(O)c(O)c2)[C@H](C(=O)O)N2C(=O)/C(=C/c3ccc(F)cn3)[C@H]2S1(=O)=O` , write its MIC.
*A* 2

====

Test system: Pseudomonas aeruginosa PAO1
assay.overview: Inhibition of beta-lactamase activity in Pseudomonas aeruginosa PAO1 deltadacBdeltaampD assessed as MIC for cefpodoxime antibacterial activity at 16 mg/L by broth microdilution method
Would you mind telling me the reported MIC of each entry?

# example entries with known answers
C[C@]1(COC(=O)Cc2ccc(O)c(O)c2)[C@H](C(=O)O)N2C(=O)/C(=C/c3cc(Br)ccn3)[C@H]2S1(=O)=O
1 µg/mL
NC(=O)[C@@H]1CC[C@@H]2CN1C(=O)N2OS(=O)(=O)O [AVIBACTAM SODIUM]
1 µg/mL
C[C@]1(COC(=O)Cc2ccc(O)c(O)c2)[C@H](C(=O)O)N2C(=O)/C(=C/c3ccccn3)[C@H]2S1(=O)=O
1 µg/mL

*Q* For `C[C@]1(COC(=O)Cc2ccc(O)c(O)c2)[C@H](C(=O)O)N2C(=O)/C(=C/c3ccc(F)cn3)[C@H]2S1(=O)=O` , write its MIC.
*A* 2 µg/mL

====

Would you mind telling me the reported MIC of each entry?
Tested on: Pseudomonas aeruginosa PAO1
assay.overview: Inhibition of beta-lactamase activity in Pseudomonas aeruginosa PAO1 PAHUAC-14 (ST-966) assessed as MIC for cefpodoxime antibacterial activity at 4 mg/L by broth microdilution method
Numbers only, in µg/mL.

# example entries with known answers
C[C@]1(COC(=O)Cc2ccc(O)c(O)c2)[C@H](C(=O)O)N2C(=O)/C(=C/c3ccc(F)cn3)[C@H]2S1(=O)=O
8
C[C@]1(COC(=O)Cc2ccc(O)c(O)c2)[C@H](C(=O)O)N2C(=O)/C(=C/c3ccccn3)[C@H]2S1(=O)=O
16
NC(=O)[C@@H]1CC[C@@H]2CN1C(=O)N2OS(=O)(=O)O [AVIBACTAM SODIUM]
4

Kindly review the next molecule as well.
*Q* For `C[C@]1(COC(=O)Cc2ccc(O)c(O)c2)[C@H](C(=O)O)N2C(=O)/C(=C/c3cc(Br)ccn3)[C@H]2S1(=O)=O` , write its MIC.
*A* 4
